target: recombinant human Nav1.7 (Homo sapiens (Human), UniProt Q15858); experiment: FRET-based membrane potential assay, recombinant human sodium channel Nav1.7; format: cell-based; conditions: HEK293 cells stably expressing recombinant human Nav1.7; veratridine + scorpion venom depolarization; read-out: FRET-Membrane Potential Nav1.7 IC50
Sequence (Q15858 whole entry): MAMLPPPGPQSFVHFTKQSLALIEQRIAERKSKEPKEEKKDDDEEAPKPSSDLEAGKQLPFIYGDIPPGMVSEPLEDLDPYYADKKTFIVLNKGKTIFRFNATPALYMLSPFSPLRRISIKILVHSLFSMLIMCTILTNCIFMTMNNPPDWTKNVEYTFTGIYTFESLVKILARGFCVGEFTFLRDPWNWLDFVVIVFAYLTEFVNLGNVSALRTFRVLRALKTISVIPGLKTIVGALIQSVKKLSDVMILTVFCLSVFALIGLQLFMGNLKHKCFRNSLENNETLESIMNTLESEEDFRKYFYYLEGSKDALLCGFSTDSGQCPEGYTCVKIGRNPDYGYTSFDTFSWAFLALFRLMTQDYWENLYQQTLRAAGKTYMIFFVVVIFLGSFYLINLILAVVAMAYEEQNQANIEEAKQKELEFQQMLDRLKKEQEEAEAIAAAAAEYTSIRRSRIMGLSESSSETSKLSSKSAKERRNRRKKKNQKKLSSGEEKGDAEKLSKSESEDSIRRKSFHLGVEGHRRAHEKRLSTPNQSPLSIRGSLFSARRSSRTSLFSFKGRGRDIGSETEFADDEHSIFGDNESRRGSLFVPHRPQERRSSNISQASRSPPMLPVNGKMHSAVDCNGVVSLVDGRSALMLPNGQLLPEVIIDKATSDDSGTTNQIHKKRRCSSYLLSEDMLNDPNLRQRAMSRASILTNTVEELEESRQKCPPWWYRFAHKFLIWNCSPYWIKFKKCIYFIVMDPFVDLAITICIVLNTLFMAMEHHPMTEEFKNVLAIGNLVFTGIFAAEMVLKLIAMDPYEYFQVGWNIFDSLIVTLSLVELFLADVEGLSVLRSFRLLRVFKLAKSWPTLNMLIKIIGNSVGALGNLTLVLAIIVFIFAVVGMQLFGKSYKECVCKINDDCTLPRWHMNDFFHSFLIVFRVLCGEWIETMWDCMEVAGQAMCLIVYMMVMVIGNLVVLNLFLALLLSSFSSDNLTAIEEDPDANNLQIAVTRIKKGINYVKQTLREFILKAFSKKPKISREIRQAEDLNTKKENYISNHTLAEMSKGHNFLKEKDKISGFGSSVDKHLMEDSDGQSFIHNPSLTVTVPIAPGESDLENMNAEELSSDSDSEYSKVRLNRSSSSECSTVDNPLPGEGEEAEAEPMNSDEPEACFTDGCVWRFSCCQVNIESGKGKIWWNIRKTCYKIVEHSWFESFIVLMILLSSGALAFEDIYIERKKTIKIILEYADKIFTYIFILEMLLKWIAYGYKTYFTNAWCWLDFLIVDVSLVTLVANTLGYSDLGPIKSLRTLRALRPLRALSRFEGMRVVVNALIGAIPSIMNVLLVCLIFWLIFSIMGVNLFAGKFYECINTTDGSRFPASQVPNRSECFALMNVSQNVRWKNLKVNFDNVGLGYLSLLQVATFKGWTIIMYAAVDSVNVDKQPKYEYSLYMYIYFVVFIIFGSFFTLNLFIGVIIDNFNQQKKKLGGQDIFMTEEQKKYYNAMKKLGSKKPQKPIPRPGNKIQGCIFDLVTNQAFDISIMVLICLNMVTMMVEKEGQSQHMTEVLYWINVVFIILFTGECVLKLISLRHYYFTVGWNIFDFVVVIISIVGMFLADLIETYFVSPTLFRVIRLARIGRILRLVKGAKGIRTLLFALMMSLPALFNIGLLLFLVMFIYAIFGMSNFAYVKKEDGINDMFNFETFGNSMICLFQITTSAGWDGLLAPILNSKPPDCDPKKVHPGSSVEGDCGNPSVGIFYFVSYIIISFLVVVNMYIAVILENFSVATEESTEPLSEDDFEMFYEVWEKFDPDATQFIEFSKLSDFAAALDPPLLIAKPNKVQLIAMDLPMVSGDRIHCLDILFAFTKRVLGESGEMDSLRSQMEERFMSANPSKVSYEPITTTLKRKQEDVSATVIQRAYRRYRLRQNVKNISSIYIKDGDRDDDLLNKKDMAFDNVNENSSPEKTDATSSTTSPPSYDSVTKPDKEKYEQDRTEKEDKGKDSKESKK
readout-kind: pIC50
// returns pIC50 (minus log10 of molar concentration), number only

Worked cases, pIC50 given:
Requested read-out: pIC50. Entry: O=C(c1ccc2cc(Oc3ccc(C(F)(F)F)cn3)ccc2n1)N1CCC(N2C[C@H]3C[C@@H]2CO3)CC1
5.65

Recorded pIC50 of O=C1C[C@@H](NC(=O)c2ccc3cc(Oc4ccc(C(F)(F)F)cn4)ccc3n2)CN1 , please.
5.99

Returns the measured pIC50 for the input compound. Input: CCCN(CCOC)C(=O)c1ccc2cc(Oc3ccc(C#N)cc3)ccc2n1
5.39

Which measured pIC50 value corresponds to N#Cc1ccc(Oc2ccc3nc(C(=O)NC(CO)CO)ccc3c2)cc1 ?
5.06

Item O=C1CCN(C(=O)CNC(=O)c2ccc3cc(Oc4ccc(C(F)(F)F)cn4)ccc3n2)C1 has what recorded pIC50?
5.57

# lookup: pIC50 of O=C(c1ccc2cc(Oc3ccc(C(F)(F)F)cn3)ccc2n1)N1CCC(CO)CC1
5.46

New cases:
So what does the record say about pIC50 for CC1(C)CN(CCNC(=O)c2ccc3cc(Oc4ccc(C(F)(F)F)cn4)ccc3n2)C1 ?
6.43

---

Listed compounds paired with reported IC50
biological target: recombinant human Nav1.7 (Homo sapiens (Human), UniProt Q15858); assay: FRET-based membrane potential assay, recombinant human sodium channel Nav1.7; type: cell-based; settings: HEK293 cells stably expressing recombinant human Nav1.7; veratridine + scorpion venom depolarization; read-out: FRET-Membrane Potential Nav1.7 IC50
Field format: number, assumed µM, no unit text.

// fetch recombinant human Nav1.7 (Homo sapiens (Human), UniProt Q15858) IC50 for N#Cc1ccc(Oc2ccc3nc(C(=O)NCc4ncco4)ccc3c2)cc1 [Example 144]
0.832

Query for recombinant human Nav1.7 (Homo sapiens (Human), UniProt Q15858): what IC50 does the record show for O=C(c1ccc2cc(Oc3ccc(C(F)(F)F)nc3)ccc2n1)N1CC[C@@H](F)C1 [Example 548] ?
4.05

What value of IC50 on recombinant human Nav1.7 (Homo sapiens (Human), UniProt Q15858) does CCN1CC(NC(=O)c2ccc3cc(Oc4ccc(C(F)(F)F)cn4)ccc3n2)CC1=O (centres unmarked) [Example 45] have?
0.325

Look up IC50 with recombinant human Nav1.7 (Homo sapiens (Human), UniProt Q15858) for this compound: O=C(c1ccc2cc(Oc3ccc(C(F)(F)F)cn3)ccc2n1)N1CC[C@H](F)[C@H](O)C1 (relative stereo) [Example 192]
17.7

Which measured IC50 belongs to CN(C)C(=O)CN(C)C(=O)c1ccc2cc(Oc3ccc(C(F)(F)F)cn3)ccc2n1 [Example 413] , tested on recombinant human Nav1.7 (Homo sapiens (Human), UniProt Q15858)?
12.4

Recorded IC50 for O=C(NC1COC1)c1ccc2cc(Oc3ccc(C(F)(F)F)cn3)ccc2n1 [Example 399] with recombinant human Nav1.7 (Homo sapiens (Human), UniProt Q15858), please?
0.375

Field: IC50 (recombinant human Nav1.7 (Homo sapiens (Human), UniProt Q15858)). Entry: O=C(c1ccc2cc(Oc3ccc(C(F)(F)F)cn3)ccc2n1)N1CC(OCC(F)F)C1 [Example 619]
2.88

Now look at this entry.
Request body: readout IC50, system recombinant human Nav1.7 (Homo sapiens (Human), UniProt Q15858), query O=C(c1ccc2cc(Oc3ccc(C(F)(F)F)cn3)ccc2n1)N1CCC(F)(F)C(O)C1 (centres unmarked) [Example 193] . Return the value.
4.25

---

Recorded measurements of inhibition in vivo at 100 mg/kg, one per entry
Test system: spinal nerve ligated rats
Assay: Rat spinal nerve ligation (SNL) model of neuropathic pain, paw withdrawal threshold
Type: in vivo
Details: SNL dose 100 mg/kg; rat, von Frey paw withdrawal threshold; read-out: SNL MPE
Procedure: Rat Spinal Nerve Ligation (SNL) Model of Neuropathic Pain. […] Mechanical sensitivity was measured using calibrated von Frey filaments (Stoelting, Wood Dale, Ill.). […] A percent maximal possible effect (% MPE) of testing compound was calculated according to the formula: (Log [compound−treated threshold]−Log [vehicle−treated threshold])/(Log [maximum threshold]−Log [vehicle−treated threshold])×100%, where the maximum threshold was equal to 15 g. […]
The figure you give is taken to be in %; do not add the unit.

Here are 3 molecules together with their reported answers.
I am curious: what inhibition in vivo at 100 mg/kg value has been reported for O=C(N[C@H]1CCS(=O)(=O)C1)c1ccc2cc(Oc3ccc(C(F)(F)F)cn3)ccc2n1 [Example 4] ?
56

Any idea what its inhibition in vivo at 100 mg/kg is? The molecule is O=C(c1ccc2cc(Oc3ccc(C(F)F)cn3)ccc2n1)N1CCNCC1 [Example 14]
44

What inhibition in vivo at 100 mg/kg value was documented for this molecule, O=C(c1ccc2cc(Oc3ccc(C(F)(F)F)cn3)ccc2n1)N1CCC(N2CCOCC2)CC1 [Example 11] ?
34

Next, consider the following molecule.
Look up inhibition in vivo at 100 mg/kg: O=C(c1ccc2cc(Oc3ccc(C(F)(F)F)cn3)ccc2n1)N1CC(N2CCOCC2)C1 [Example 6]
27

---

pIC50 listing for selected compounds.
molecular target: recombinant human Nav1.7 (Homo sapiens (Human)); assay: FRET-based membrane potential assay, recombinant human sodium channel Nav1.7; format: cell-based; conditions: HEK293 cells stably expressing recombinant human Nav1.7; veratridine + scorpion venom depolarization; read-out: FRET-Membrane Potential Nav1.7 IC50
The value called pIC50 is obtained by taking minus log10 of the concentration in mol/L.

Tell me the measured pIC50 of NC1CN(C(=O)c2ccc3cc(Oc4ccc(C(F)(F)F)cn4)ccc3n2)C1 , please.
6.63

Fill in: pIC50 of O=C(c1ccc2cc(Oc3ccc(C(F)(F)F)cn3)ccc2n1)N1CC=CC1 is ___
5.70

Sample CC(C)(O)CNC(=O)c1ccc2cc(Oc3ccc(C(F)(F)F)nc3)ccc2n1 — what was its pIC50?
5.62

What value of measured pIC50 is listed for N[C@@H]1[C@H]2CN(C(=O)c3ccc4cc(Oc5ccc(C(F)(F)F)nc5)ccc4n3)C[C@@H]12 ?
5.53

Please look up its pIC50: O=C(c1ccc2cc(Oc3ccc(C(F)(F)F)cn3)ccc2n1)N1C[C@@H](O)[C@H](O)C1 (relative stereo)
5.25

Continuing:
Query: pIC50; subject: O=C(c1ccc2cc(Oc3ccc(C(F)(F)F)cn3)ccc2n1)N1CC2(CCOCC2)C1
5.31

Could you tell me which pIC50 is on file for O=C(c1ccc2cc(Oc3ccc(C(F)(F)F)cn3)ccc2n1)N1CCN(S(=O)(=O)N2CCCCC2)CC1 ?
6.03

Value lookup for pIC50; key = N#Cc1ccc(Oc2ccc3nc(C(=O)NC4CCN(Cc5ccccc5)C4)ccc3c2)cc1 (stereo not shown)
6.18

Quick check: pIC50 of O=C(NCCC(=O)N1CCCC1)c1ccc2cc(Oc3ccc(C(F)(F)F)cn3)ccc2n1 ?
6.57

Which measured pIC50 value corresponds to CCN1CCN(C(=O)c2ccc3cc(Oc4ccc(C(F)(F)F)cn4)ccc3n2)CC1 ?
5.85

Would you mind telling me what pIC50 value was observed for O=C(c1ccc2cc(Oc3ccc(C(F)(F)F)cn3)ccc2n1)N1CC[C@@H](N2CCCCC2)C1 ?
6.55

Given the compound O=C(c1ccc2cc(Oc3ccc(C(F)(F)F)cn3)ccc2n1)N1CCOC(CO)C1 (stereo not shown) , what is its reported pIC50?
4.84

Sample CC(C)NC(=O)CN(C)C(=O)c1ccc2cc(Oc3ccc(C(F)F)cn3)ccc2n1 — what was its pIC50?
4.86

Could you share which pIC50 value was measured for O=C(c1ccc2cc(Oc3ccc(C(F)(F)F)cn3)ccc2n1)N1CC[C@@H](F)C1 ?
5.53

So what does the record say about pIC50 for O=C(c1ccc2cc(Oc3ccc(C(F)(F)F)cn3)ccc2n1)N1CCNC2(CCC2)C1 ?
6.27

---

target: recombinant human Nav1.7 (Homo sapiens (Human)); test: FRET-based membrane potential assay, recombinant human sodium channel Nav1.7; format: cell-based; conditions: HEK293 cells stably expressing recombinant human Nav1.7; veratridine + scorpion venom depolarization; read-out: FRET-Membrane Potential Nav1.7 IC50
Below is a list of entries, each paired with its recorded IC50 value.
Provide only the numeric value, understood in µM.

# example entries with known answers
Fill blank: measured IC50 of the compound CS(=O)(=O)C1CN(C(=O)c2ccc3cc(Oc4ccc(C(F)(F)F)nc4)ccc3n2)C1 [Example 534] is ____.
1.97

Fill in: IC50 of CN(C(=O)c1ccc2cc(Oc3ccc(C(F)(F)F)cn3)ccc2n1)C1CCOCC1 [Example 411] is ___
14.1

For O=C(c1ccc2cc(Oc3ccc(C(F)(F)F)cn3)ccc2n1)N1CC2(C1)OCCO2 [Example 476] , what is its reported IC50?
3.92

Can you look up the measured IC50 of CN1CC(NC(=O)c2ccc3cc(Oc4ccc(C(F)(F)F)cn4)ccc3n2)CC1=O (single isomer, unassigned) [Example 73] for me?
1.44

Fill in the blank: the reported IC50 of O=C(NC1CCS(=O)(=O)CC1)c1ccc2cc(Oc3ccc(C(F)(F)F)cn3)ccc2n1 [Example 15] is ____.
1.09

State the recorded IC50 for this entry: C[C@@H]1CN2C[C@@H](F)C[C@@H]2CN1C(=O)c1ccc2cc(Oc3ccc(C(F)(F)F)cn3)ccc2n1 [Example 357]
2.72

Any idea what its IC50 is? The compound is O=C(NC1CCC(F)(F)CC1)c1ccc2cc(Oc3ccc(C(F)(F)F)cn3)ccc2n1 [Example 23]
1.45

// query IC50 value for entry O=C(NCCN1CCNC1=O)c1ccc2cc(Oc3ccc(C(F)(F)F)cn3)ccc2n1 [Example 421]
1.06

***
Item O=C(c1ccc2cc(Oc3ccc(C(F)(F)F)cn3)ccc2n1)N1CCN2C(=O)OCC2C1 (centres unmarked) [Example 329] has what recorded IC50?
9.28

Please look up its IC50: O=C(c1ccc2cc(Oc3ccc(C(F)(F)F)cn3)ccc2n1)N1CCN(c2cccnc2)CC1 [Example 269]
3.07

Can you look up the measured IC50 of CC(C)(O)CNC(=O)c1ccc2cc(Oc3ccc(C(F)F)cn3)ccc2n1 [Example 434] for me?
5.58

Please report the recorded IC50 for CC(C)(C)N1CCN(C(=O)c2ccc3cc(Oc4ccc(C#N)cc4)ccc3n2)CC1 [Example 140] .
0.559

Returns the measured IC50 for the input compound. Input: O=C(c1ccc2cc(Oc3ccc(C(F)(F)F)cn3)ccc2n1)N1CCN(S(=O)(=O)CCC(F)(F)F)CC1 [Example 332]
10.1

What value of IC50 has been reported for the following compound? CN(C(=O)c1ccc2cc(Oc3ccc(C(F)(F)F)cn3)ccc2n1)C1COC1 [Example 480]
19.9

Sample N#Cc1ccc(Oc2ccc3nc(C(=O)NCC(N)=O)ccc3c2)cc1 [Example 146] — what was its IC50?
8.03

Can you look up the measured IC50 of CC1CN(C(=O)c2ccc3cc(Oc4ccc(C(F)F)cn4)ccc3n2)CC(C)N1 (centres unmarked) [Example 67] for me?
1.28
